Biological target: human TNFα (human, UniProt P01375 77-233)
Sequence (P01375 77-233 limits assumed): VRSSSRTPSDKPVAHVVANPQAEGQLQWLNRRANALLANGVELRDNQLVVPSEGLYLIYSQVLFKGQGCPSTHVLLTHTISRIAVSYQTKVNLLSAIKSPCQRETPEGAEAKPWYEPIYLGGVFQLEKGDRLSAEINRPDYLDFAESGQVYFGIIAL
Assay: cell-based or functional assay
measuredQuantity: EC50 in nM (mean); L929s + Act D cytotoxicity assay, human TNFa @ 0.5 ng/ml (nM)
Give bare numbers, in nM.

>  <binder>
TNF23 (TNF3 HUM4) (VHH) VHH: EVQLVESGGGLVQPGGSLRLSCAASGRSLSNYYMGWFRQAPGKGRELLGNISWRGYNIYYKDSVKGRFTISRDDSKNTIYLQMNSLKPEDTAVYYCAASILPLSDDPGWNTYWGQGTLVTVSS

>  <recordedValue>
0.3

$$$$

Entry TNF21 (TNF3 HUM2) (VHH) VHH: EVQLVESGGGLVQPGGSLRLSCAASGFTFSNYYMGWFRQAPGKGRELLGNISWRGYNIYYKDSVKGRFTISRDDSKNTIYLQMNSLKPEDTAVYYCAASILPLSDDPGWNTYWGQGTQVTVSS has what EC50 in nM (mean); L929s + Act D cytotoxicity assay, human TNFa @ 0.5 ng/ml? 0.889
